Biological target: Dual specificity mitogen-activated protein kinase kinase 7 (Homo sapiens) (UniProt O14733)
Sequence (whole entry): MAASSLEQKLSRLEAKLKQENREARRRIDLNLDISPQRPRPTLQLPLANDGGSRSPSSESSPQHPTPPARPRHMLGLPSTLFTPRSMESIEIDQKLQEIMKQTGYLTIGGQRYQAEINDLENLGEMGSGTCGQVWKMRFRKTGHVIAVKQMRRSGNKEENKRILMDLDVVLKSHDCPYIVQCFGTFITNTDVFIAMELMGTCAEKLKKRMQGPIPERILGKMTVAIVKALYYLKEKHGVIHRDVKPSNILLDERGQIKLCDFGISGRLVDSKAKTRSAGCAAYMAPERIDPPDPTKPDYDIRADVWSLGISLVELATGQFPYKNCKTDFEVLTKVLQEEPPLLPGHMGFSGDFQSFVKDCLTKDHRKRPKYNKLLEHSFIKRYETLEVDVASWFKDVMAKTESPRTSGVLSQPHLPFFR
Conditions: at 10 µM
residual activity listing for selected compounds.
Observation type: residual activity (%)

[[record]]
compound = "O=C1Nc2ccccc2/C1=C1/Nc2ccccc2/C1=N\\OCCC(O)CO (stereo unspecified)"
study_target = "Dual specificity mitogen-activated protein kinase kinase 7 (Homo sapiens) (UniProt O14733)"
measured_value = 5

[[record]]
compound = "O=c1c2ccccc2[nH]c(=S)n1CCN1CCC(=C(c2ccc(F)cc2)c2ccc(F)cc2)CC1"
study_target = "Dual specificity mitogen-activated protein kinase kinase 7 (Homo sapiens) (UniProt O14733)"
measured_value = 90

[[record]]
compound = "Cc1cccc(-c2[nH]c(C(C)(C)C)nc2-c2ccc3c(c2)OCO3)n1"
study_target = "Dual specificity mitogen-activated protein kinase kinase 7 (Homo sapiens) (UniProt O14733)"
measured_value = 83

[[record]]
compound = "COc1ccc(CNc2nc(N(CCO)CCO)nc3c2ncn3C(C)C)cc1"
study_target = "Dual specificity mitogen-activated protein kinase kinase 7 (Homo sapiens) (UniProt O14733)"
measured_value = 95

[[record]]
compound = "c1ccc(-c2n[nH]cc2-c2ccnc3ccccc23)nc1"
study_target = "Dual specificity mitogen-activated protein kinase kinase 7 (Homo sapiens) (UniProt O14733)"
measured_value = 87

[[record]]
compound = "CCN(CC)C(=O)c1ccc(Nc2nc(OCC3CCCCC3)c3nc[nH]c3n2)cc1"
study_target = "Dual specificity mitogen-activated protein kinase kinase 7 (Homo sapiens) (UniProt O14733)"
measured_value = 16

[[record]]
compound = "c1ccc(-c2n[nH]c3c2oc2ccccc23)cc1"
study_target = "Dual specificity mitogen-activated protein kinase kinase 7 (Homo sapiens) (UniProt O14733)"
measured_value = 67

[[record]]
compound = "O=C1c2ccccc2-[n+]2ccc3c([nH]c4ccccc43)c21"
study_target = "Dual specificity mitogen-activated protein kinase kinase 7 (Homo sapiens) (UniProt O14733)"
measured_value = 97

[[record]]
compound = "O=C1NC(=O)/C(=C\\c2ccc3nccnc3c2)S1"
study_target = "Dual specificity mitogen-activated protein kinase kinase 7 (Homo sapiens) (UniProt O14733)"
measured_value = 88

[[record]]
compound = "Ic1cccc(CSc2nnc(-c3ccncc3)o2)c1"
study_target = "Dual specificity mitogen-activated protein kinase kinase 7 (Homo sapiens) (UniProt O14733)"
measured_value = 94

[[record]]
compound = "COc1ccc(OC)c2c(=S)c3ccccc3[nH]c12"
study_target = "Dual specificity mitogen-activated protein kinase kinase 7 (Homo sapiens) (UniProt O14733)"
measured_value = 90


---

Biological target: Fibroblast growth factor receptor 3 (Homo sapiens) (UniProt P22607)
Sequence (P22607 23-806 limits assumed): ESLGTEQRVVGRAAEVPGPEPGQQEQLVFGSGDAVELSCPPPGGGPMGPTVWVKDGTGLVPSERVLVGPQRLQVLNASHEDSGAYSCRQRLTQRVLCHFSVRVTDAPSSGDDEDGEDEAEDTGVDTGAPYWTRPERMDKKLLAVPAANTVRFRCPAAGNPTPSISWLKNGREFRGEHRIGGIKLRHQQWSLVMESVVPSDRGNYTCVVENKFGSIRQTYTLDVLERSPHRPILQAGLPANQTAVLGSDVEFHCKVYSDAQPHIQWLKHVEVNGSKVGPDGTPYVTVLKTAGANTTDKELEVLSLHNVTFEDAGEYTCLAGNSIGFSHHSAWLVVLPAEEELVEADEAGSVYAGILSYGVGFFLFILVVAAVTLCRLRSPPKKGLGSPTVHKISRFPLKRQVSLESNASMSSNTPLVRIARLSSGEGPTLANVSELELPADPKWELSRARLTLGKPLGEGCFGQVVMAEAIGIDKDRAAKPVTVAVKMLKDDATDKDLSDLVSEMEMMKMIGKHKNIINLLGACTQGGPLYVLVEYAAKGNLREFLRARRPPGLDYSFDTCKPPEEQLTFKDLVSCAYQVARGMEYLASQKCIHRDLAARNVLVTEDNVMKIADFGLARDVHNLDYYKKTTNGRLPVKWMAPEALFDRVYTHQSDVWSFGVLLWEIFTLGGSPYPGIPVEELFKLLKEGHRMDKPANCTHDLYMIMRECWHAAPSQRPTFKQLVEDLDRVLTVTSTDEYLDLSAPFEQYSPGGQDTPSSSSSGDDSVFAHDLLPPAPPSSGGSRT
Settings: at 10 µM
residual activity listing for selected compounds.
Observation type: residual activity (%)

[[record]]
query_smiles = "Oc1n[nH]c2nnc(-c3c(-c4ccccc4)nn4ccccc34)cc12"
value_units = "%"
measured_value = 102

[[record]]
query_smiles = "CO[C@@H]1[C@H](N(C)C(=O)c2ccccc2)C[C@H]2O[C@]1(C)n1c3ccccc3c3c4c(c5c6ccccc6n2c5c31)C(=O)NC4"
value_units = "%"
measured_value = 19

[[record]]
query_smiles = "COc1ccc(OC)c2c(=S)c3ccccc3[nH]c12"
value_units = "%"
measured_value = 113

[[record]]
query_smiles = "NC(=O)c1ccc2[nH]c(-c3ccc(Oc4ccc(Cl)cc4)cc3)nc2c1"
value_units = "%"
measured_value = 132

[[record]]
query_smiles = "CC(C)n1cnc2/c(=N/c3cccc(Cl)c3)nc(NCCO)[nH]c21"
value_units = "%"
measured_value = 59

[[record]]
query_smiles = "Cc1ccc(NC2=CC(=O)c3sc(C)nc3C2=O)cc1"
value_units = "%"
measured_value = 118

[[record]]
query_smiles = "CCN(CC)C(=O)c1ccc(Nc2nc(OCC3CCCCC3)c3nc[nH]c3n2)cc1"
value_units = "%"
measured_value = 4

[[record]]
query_smiles = "CN(C)c1ccc(/C=C2\\C(=O)Nc3ccccc32)cc1"
value_units = "%"
measured_value = 64

[[record]]
query_smiles = "O=c1cc(-c2cccc3c2Sc2ccccc2S3)oc(N2CCOCC2)c1"
value_units = "%"
measured_value = 84

[[record]]
query_smiles = "CNc1cc2c(Nc3cccc(Br)c3)ncnc2cn1"
value_units = "%"
measured_value = 100

[[record]]
query_smiles = "Cn1cnc2cc3c(Nc4cccc(Br)c4)ncnc3cc21"
value_units = "%"
measured_value = 97


---

Molecular target: Serine/threonine-protein kinase MRCK beta (Homo sapiens) (UniProt Q9Y5S2)
Sequence (Q9Y5S2 whole entry): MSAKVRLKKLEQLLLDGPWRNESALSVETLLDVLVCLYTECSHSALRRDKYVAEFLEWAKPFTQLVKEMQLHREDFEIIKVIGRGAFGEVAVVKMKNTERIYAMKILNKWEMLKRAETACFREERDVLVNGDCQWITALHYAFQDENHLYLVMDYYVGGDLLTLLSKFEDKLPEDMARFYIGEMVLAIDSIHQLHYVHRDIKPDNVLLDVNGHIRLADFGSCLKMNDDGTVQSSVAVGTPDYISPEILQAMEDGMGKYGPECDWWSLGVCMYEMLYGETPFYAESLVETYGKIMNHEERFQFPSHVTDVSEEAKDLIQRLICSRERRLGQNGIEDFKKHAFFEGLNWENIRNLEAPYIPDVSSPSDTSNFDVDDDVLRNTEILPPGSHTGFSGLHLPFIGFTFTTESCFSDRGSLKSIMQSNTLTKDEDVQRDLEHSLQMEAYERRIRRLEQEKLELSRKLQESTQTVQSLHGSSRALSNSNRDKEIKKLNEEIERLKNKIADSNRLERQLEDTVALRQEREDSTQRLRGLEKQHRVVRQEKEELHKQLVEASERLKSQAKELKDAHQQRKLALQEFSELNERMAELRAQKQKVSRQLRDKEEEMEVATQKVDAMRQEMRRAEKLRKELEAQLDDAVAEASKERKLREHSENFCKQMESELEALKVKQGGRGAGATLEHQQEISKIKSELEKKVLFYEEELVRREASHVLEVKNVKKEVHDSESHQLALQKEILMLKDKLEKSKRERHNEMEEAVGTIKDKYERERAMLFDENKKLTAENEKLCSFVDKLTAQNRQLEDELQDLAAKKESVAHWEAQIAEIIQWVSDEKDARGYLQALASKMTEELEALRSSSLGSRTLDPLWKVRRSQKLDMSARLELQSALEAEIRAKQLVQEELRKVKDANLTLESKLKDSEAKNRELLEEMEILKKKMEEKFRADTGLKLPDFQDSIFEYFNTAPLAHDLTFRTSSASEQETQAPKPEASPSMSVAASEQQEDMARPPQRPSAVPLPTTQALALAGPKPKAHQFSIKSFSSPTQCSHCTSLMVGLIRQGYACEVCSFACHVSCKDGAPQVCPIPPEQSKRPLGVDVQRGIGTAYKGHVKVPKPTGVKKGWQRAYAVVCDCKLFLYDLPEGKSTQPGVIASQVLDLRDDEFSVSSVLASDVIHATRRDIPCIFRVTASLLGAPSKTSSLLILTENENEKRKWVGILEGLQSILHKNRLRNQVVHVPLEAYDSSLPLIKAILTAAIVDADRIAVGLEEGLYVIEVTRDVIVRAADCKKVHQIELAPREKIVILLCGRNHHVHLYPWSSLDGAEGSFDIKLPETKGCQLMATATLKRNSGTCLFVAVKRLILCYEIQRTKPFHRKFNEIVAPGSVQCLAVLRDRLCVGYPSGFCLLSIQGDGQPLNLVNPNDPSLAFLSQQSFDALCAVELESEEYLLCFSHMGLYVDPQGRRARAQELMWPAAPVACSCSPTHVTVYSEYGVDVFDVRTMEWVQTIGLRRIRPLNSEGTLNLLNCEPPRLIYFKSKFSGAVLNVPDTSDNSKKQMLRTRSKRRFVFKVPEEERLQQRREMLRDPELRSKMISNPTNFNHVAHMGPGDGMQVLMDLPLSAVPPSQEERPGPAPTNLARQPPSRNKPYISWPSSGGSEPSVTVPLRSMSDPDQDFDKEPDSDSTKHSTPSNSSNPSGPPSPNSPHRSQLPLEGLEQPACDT
Conditions: at 10 µM
residual activity listing for selected compounds.
Observation type: residual activity (%)

[[record]]
query_smiles = "O=C1NC(=O)/C(=C/c2ccc3c(c2)OC(F)(F)O3)S1"
observation_type = "residual activity"
value_units = "%"
measured_value = 85

[[record]]
query_smiles = "N#CC(C#N)=C(N)/C(C#N)=C/c1ccc(O)cc1"
observation_type = "residual activity"
value_units = "%"
measured_value = 84

[[record]]
query_smiles = "COc1cc2ncnc(Nc3ccc(NC(=O)c4ccccc4)cc3)c2cc1OC"
observation_type = "residual activity"
value_units = "%"
measured_value = 90

[[record]]
query_smiles = "O=C1NC(=O)c2c1c1c3ccccc3[nH]c1c1[nH]c3cc(Br)ccc3c21"
observation_type = "residual activity"
value_units = "%"
measured_value = 85

[[record]]
query_smiles = "Cn1cnc2cc3c(Nc4cccc(Br)c4)ncnc3cc21"
observation_type = "residual activity"
value_units = "%"
measured_value = 92

[[record]]
query_smiles = "c1ccc(-c2n[nH]c3c2oc2ccccc23)cc1"
observation_type = "residual activity"
value_units = "%"
measured_value = 115

[[record]]
query_smiles = "CC[n+]1c(/C=C/N(C)c2ccccc2)n(-c2ccccc2)c2ccc(-c3nc4ccccc4s3)cc21"
observation_type = "residual activity"
value_units = "%"
measured_value = 83

[[record]]
query_smiles = "COc1ccc(C(=O)Nc2sc3c(c2C(N)=O)CCCC3)cc1OC"
observation_type = "residual activity"
value_units = "%"
measured_value = 74

[[record]]
query_smiles = "COc1cc2ncnc(Nc3ccc(Oc4ccccc4)cc3)c2cc1OC"
observation_type = "residual activity"
value_units = "%"
measured_value = 114

[[record]]
query_smiles = "CCOc1cc2ncnc(Nc3cccc(Br)c3)c2cc1OCC"
observation_type = "residual activity"
value_units = "%"
measured_value = 72

[[record]]
query_smiles = "N#CCCc1ccc2c(c1)-c1[nH]c3ccc([N+](=O)[O-])cc3c1CC(=O)N2"
observation_type = "residual activity"
value_units = "%"
measured_value = 6


---

residual activity listing for selected molecules.
Molecular target: Myotonin-protein kinase (Homo sapiens)
Details: at 1 µM
Observation type: residual activity

[[record]]
query_smiles = "c1ccc2c(-c3ccncc3)c[nH]c2c1"
study_target = "Myotonin-protein kinase (Homo sapiens)"
measured_value = "147%"

[[record]]
query_smiles = "CNc1cc2c(Nc3cccc(Br)c3)ncnc2cn1"
study_target = "Myotonin-protein kinase (Homo sapiens)"
measured_value = "107%"

[[record]]
query_smiles = "Cc1nc2cc3nc(-c4cccs4)cnc3cc2n1C"
study_target = "Myotonin-protein kinase (Homo sapiens)"
measured_value = "113%"

[[record]]
query_smiles = "Ic1cccc(CSc2nnc(-c3ccncc3)o2)c1"
study_target = "Myotonin-protein kinase (Homo sapiens)"
measured_value = "82%"

[[record]]
query_smiles = "COc1cc2ncnc(Nc3ccc(Oc4ccccc4)cc3)c2cc1OC"
study_target = "Myotonin-protein kinase (Homo sapiens)"
measured_value = "98%"

[[record]]
query_smiles = "Nc1n[nH]c2nnc(-c3c(-c4ccccc4)nn4ccccc34)cc12"
study_target = "Myotonin-protein kinase (Homo sapiens)"
measured_value = "92%"

[[record]]
query_smiles = "COc1cc2ncnc(Nc3ccc(O)c(Br)c3)c2cc1OC"
study_target = "Myotonin-protein kinase (Homo sapiens)"
measured_value = "105%"

[[record]]
query_smiles = "O=C1NC(=O)/C(=C\\c2ccc3nccnc3c2)S1"
study_target = "Myotonin-protein kinase (Homo sapiens)"
measured_value = "114%"

[[record]]
query_smiles = "CCC(=O)Nc1ccc2ncnc(Nc3cccc(Br)c3)c2c1"
study_target = "Myotonin-protein kinase (Homo sapiens)"
measured_value = "112%"

[[record]]
query_smiles = "Oc1n[nH]c2nnc(-c3c(-c4ccccc4)nn4ccccc34)cc12"
study_target = "Myotonin-protein kinase (Homo sapiens)"
measured_value = "69%"

[[record]]
query_smiles = "Cc1ccc(NC2=CC(=O)c3sc(C)nc3C2=O)cc1"
study_target = "Myotonin-protein kinase (Homo sapiens)"
measured_value = "121%"

[[record]]
query_smiles = "Nc1ccc2ncnc(NCCc3ccc(Oc4ccccc4)cc3)c2c1"
study_target = "Myotonin-protein kinase (Homo sapiens)"
measured_value = "98%"

